Entry source: ChEMBL document CHEMBL4371014

Answer each item with its documented Activity.
- ASSAY_SYSTEM: Sodium- and chloride-dependent GABA transporter 1 (Mus musculus) (UniProt P31648)
- MEASUREMENT_DESCRIPTION: Inhibition of NO711 binding to mouse GAT1 expressed in HEK293 cell membranes assessed as residual binding at 1 uM preincubated for 4 hrs followed by NO711 addition and measured after 40 mins by LC-ESI-MS/MS analysis relative to control
Answers are plain numbers, in %.

INSERT INTO results (compound, unit_info, reported_value) VALUES
  ('COc1ccccc1C=O', '%', 108);

Give Activity for each listed item.
1. O=C(O)[C@H]1CNC[C@@H](CN/N=C/c2ccccc2-c2cccc(F)c2F)C1 (racemic)
2. O=C(O)[C@H]1CNC[C@@H](CN/N=C/c2sccc2-c2ccccc2Cl)C1 (racemic)

Result:
1: 58; 2: 84

---

Exercise: state measured Activity for each of the molecules provided.
- ASSAY_SYSTEM: Sodium- and chloride-dependent GABA transporter 1 (Mus musculus) (UniProt P31648)
- MEASUREMENT_DESCRIPTION: Inhibition of NO711 binding to mouse GAT1 expressed in HEK293 cell membranes assessed as residual binding at 1 uM preincubated for 4 hrs followed by NO711 addition and measured after 40 mins by LC-ESI-MS/MS analysis relative to control

Example entries and their recorded answers appear below.
INSERT INTO measurements (molecule, reported_value) VALUES
  ('O=C(O)[C@H]1CNC[C@@H](CN/N=C/c2cc(Br)co2)C1 (racemic)', '53%'),
  ('O=C(O)[C@H]1CNC[C@@H](CN/N=C/c2ccc(-c3ccc(Cl)cc3)o2)C1 (racemic)', '56%'),
  ('O=C(O)[C@H]1CNC[C@@H](CN/N=C/c2cnc(-c3ccc4ccccc4c3)nc2)C1 (racemic)', '27%'),
  ('Cc1ccc(-c2ccsc2C=O)cc1', '109%'),
  ('Nc1ncc(-c2ccccc2C=O)cn1', '121%');

Here are 3 molecules. What values of Activity were reported for them?
1. O=C(O)[C@H]1CNC[C@H](CN/N=C/c2ccccc2-n2cccc2)C1 (racemic)
2. O=C(O)[C@H]1CNC[C@@H](CN/N=C/c2sccc2-c2ccc(Cl)cc2)C1 (racemic)
3. O=Cc1ccc(-c2cccc3ccccc23)o1

Result:
1: > 50%; 2: 80%; 3: 92%

---

- ASSAY_SYSTEM: Sodium- and chloride-dependent GABA transporter 1 (Mus musculus) (UniProt P31648)
- MEASUREMENT_DESCRIPTION: Inhibition of NO711 binding to mouse GAT1 expressed in HEK293 cell membranes assessed as residual binding at 1 uM preincubated for 4 hrs followed by NO711 addition and measured after 40 mins by LC-ESI-MS/MS analysis relative to control
I'd appreciate it if you marked entries 1.0 when Activity is lower than 60% and 0.0 when it is not.

INSERT INTO results (molecule, assay_system, class) VALUES
  ('O=C(O)[C@H]1CNC[C@@H](CN/N=C/c2sccc2-c2ccccc2F)C1 (racemic)', 'Sodium- and chloride-dependent GABA transporter 1 (Mus musculus) (UniProt P31648)', 0.0);

Problem: Record "O=Cc1cnc(-c2ccc3ccccc3c2)nc1" : is its Activity strictly below 60%?
Result: 0.0

Problem: Answer whether the molecule O=C(O)[C@H]1CNC[C@@H](CN/N=C/c2ccccc2-n2cccc2)C1 (racemic) has Activity strictly less than 60%
Result: 0.0

Problem: # check: Activity < 60% for O=C(O)[C@H]1CNC[C@@H](CN/N=C/c2ccc(-c3ccccc3Br)o2)C1 (racemic)
Result: 1.0

Problem: Just wondering, is Activity of COc1ccccc1/C=N/NC[C@@H]1CNC[C@H](C(=O)O)C1 (racemic) below 60%?
Result: 0.0

Problem: A record lists O=C(O)[C@H]1CNC[C@@H](CCN/N=C/c2ccc(-c3cccc(C(F)(F)F)c3)o2)C1 (racemic) . Is its Activity below 60%?
Result: 0.0

Problem: API: query returns whether the molecule falls strictly under 60% in Activity. Query: "O=Cc1csc2ccccc12"
Result: 0.0

Problem: Take the molecule O=C(O)[C@H]1CNC[C@@H](CN/N=C/c2ccc(Br)o2)C1 (racemic) and say whether its Activity is less than 60%.
Result: 1.0

---

- ASSAY_SYSTEM: UniProt P31648
- MEASUREMENT_DESCRIPTION: Inhibition of NO711 binding to mouse GAT1 expressed in HEK293 cell membranes assessed as residual binding at 1 uM preincubated for 4 hrs followed by NO711 addition and measured after 40 mins by LC-ESI-MS/MS analysis relative to control
Exercise: for every item that follows, state its recorded Activity.
One number for each entry, in %.

INSERT INTO measurements (molecule, attribute_measured, reported_value) VALUES
  ('Cc1cccc2cc(/C=N/NCC[C@@H]3CNC[C@H](C(=O)O)C3)c(Cl)nc12 (racemic)', 'Activity', 62),
  ('Cc1ccc(-c2cccc(/C=N/NC[C@@H]3CNC[C@H](C(=O)O)C3)c2)cc1 (racemic)', 'Activity', 61),
  ('O=C(O)[C@H]1CNC[C@@H](CCN/N=C/c2ccc(-c3cccc(Cl)c3)o2)C1 (racemic)', 'Activity', 69),
  ('O=Cc1ccc(-c2cc(C(F)(F)F)cc(C(F)(F)F)c2)o1', 'Activity', 103),
  ('O=Cc1ccc(-c2ccc(Cl)cc2[N+](=O)[O-])o1', 'Activity', 72),
  ('O=Cc1ccc(I)o1', 'Activity', 115),
  ('O=Cc1ccco1', 'Activity', 107),
  ('O=C(O)[C@H]1CNC[C@@H](CCN/N=C/c2ccc(-c3ccccc3C(F)(F)F)o2)C1 (racemic)', 'Activity', 60),
  ('O=Cc1ccc(C#Cc2ccccc2)s1', 'Activity', 90),
  ('O=C(O)[C@H]1CNC[C@@H](CN/N=C/c2ccc(-c3cccc4ccccc34)o2)C1 (racemic)', 'Activity', 16);

Switching to the query record.
Simply: "O=Cc1cnc(-c2ccccc2)nc1" , UniProt P31648, Activity = 113

---

- ASSAY_SYSTEM: Sodium- and chloride-dependent GABA transporter 1 (Mus musculus)
- MEASUREMENT_DESCRIPTION: Inhibition of NO711 binding to mouse GAT1 expressed in HEK293 cell membranes assessed as residual binding at 1 uM preincubated for 4 hrs followed by NO711 addition and measured after 40 mins by LC-ESI-MS/MS analysis relative to control
Field: Activity. Provide a value for each of the compounds that follow.

Known results for compounds:
INSERT INTO measurements (compound, attribute_measured, reported_value) VALUES
  ('O=C(O)[C@H]1CNC[C@H](CN/N=C/c2sccc2-n2cccc2)C1 (racemic)', 'Activity', '> 50%'),
  ('Cc1ccsc1-c1sc(/C=N/NC[C@@H]2CNC[C@H](C(=O)O)C2)cc1C (racemic)', 'Activity', '74%'),
  ('O=C(O)[C@H]1CNC[C@H](CCN/N=C/c2ccc(-c3ccc(C(F)(F)F)cc3Cl)o2)C1 (racemic)', 'Activity', '> 50%'),
  ('O=C(O)[C@H]1CNC[C@H](CN/N=C/c2ccc(-c3ccc(C(F)(F)F)cc3Cl)o2)C1 (racemic)', 'Activity', '> 50%');

Value sought for every listed compound: Activity.
1. Cc1ccsc1-c1sc(C=O)cc1C
2. Cn1cnnc1Sc1ccc(/C=N/NC[C@@H]2CNC[C@H](C(=O)O)C2)o1 (racemic)
3. Cc1ccsc1-c1sc(/C=N/NC[C@H]2CNC[C@H](C(=O)O)C2)cc1C (racemic)
4. O=Cc1ccc(-c2ccc(Cl)cc2)s1
5. O=C(O)[C@H]1CNC[C@H](CN/N=C/c2csc3ccccc23)C1 (racemic)
6. O=Cc1ccccc1-c1ccsc1

Result:
1. 106%
2. 84%
3. > 50%
4. 107%
5. > 50%
6. 106%

For every item below, please supply its Activity.
1. O=C(O)[C@H]1CNC[C@@H](CN/N=C/c2ccccc2-c2ccc(F)cc2F)C1 (racemic)
2. O=C(O)[C@H]1CNC[C@@H](CCN/N=C/c2sccc2-n2cccc2)C1 (racemic)
3. O=C(O)[C@H]1CNC[C@@H](CN/N=C/c2ccc(-c3cc(C(F)(F)F)cc(C(F)(F)F)c3)o2)C1 (racemic)
4. Cc1cccc2cc(C=O)c(Cl)nc12
5. O=Cc1ccc([N+](=O)[O-])cc1
6. O=Cc1ccc(-c2ccc(Cl)cc2)o1
7. O=C(O)[C@H]1CNC[C@@H](CN/N=C/c2ccc(-c3ccc(Cl)cc3[N+](=O)[O-])o2)C1 (racemic)

Result:
66%
72%
32%
103%
113%
75%
37%

# per-item lookup of Activity; items listed below
1. O=C(O)[C@H]1CNC[C@@H](CN/N=C/c2sccc2-c2ccc(C(F)(F)F)cc2C(F)(F)F)C1 (racemic)
2. COc1cc(F)ccc1-c1ccccc1C=O
3. O=C(O)[C@H]1CNC[C@@H](CN/N=C/c2cccn2-c2ccc(C(F)(F)F)cc2)C1 (racemic)

Result:
1. 88%
2. 101%
3. 75%
